B1: Far upstream element-binding protein 1, residues 184 to 257; numbered along this chain, Q96AE4 (parent)
chain: GNAVQEIMIPASKAGLVIGKGGETIKQLQERAGVKMVMIQDGPQNTGADKPLRITGDPYKVQQAKEMVLELIRD

# Variants of: B1
# assay comment: abundance fitness (aPCA) (normalised: wild type 0, dead -1); higher = more abundant; growth selection in yeast, the domain comes from the species named
# assay conditions: Homo sapiens
abundance fitness of -0.06 or higher: yes (1). Under -0.06: no (0).

Look over these answered cases.
GNAVQEIMIPASKAGLVIGKGGETIKQLQERAGVKMVMIQDGPQNIGADKPLRITGDPYKVQQAKEMVLELIRD no (0)
GNAVQEIMIPASKAGLVIGKGGETIKQLQERAGVKMVMICDGPQNTGADKPLRITGDPYKVQQAKEMVLELIRD yes (1)
GNAVQEIMIPASKAGLVIGKGGETAKQLQERAGVKMVMIQDGPQNTGADKPLRITGDPYKVQQAKEMVLELIRD no (0)
GNAVQEIMIPASKAGLVIGKGGTTIKQLQERAGVKMVMIQDGPQNTGADKPLRITGDPYKVQQAKEMVLELIRD yes (1)
GNAVQEIMIPACKAGLVIGKGGETIKQLQERAGVKMVMIQDGPQNTGADKPLRITGDPYKVQQAKEMVLELIRD no (0)

Could you please find out whether GNAVQEIMIPASKAGLVIGKGGETIKQLQERAGVKMVMIQDGPQNTGADKPLRITGDPYKKQQAKEMVLELIRD has abundance fitness that meets -0.06 or exceeds it?
no (0)

Could you please find out whether GNAVQEIMIPASKAGLVIGKGPETIKQLQERAGVKMVMIQDGPQNTGADKPLRITGDPYKVQQAKEMVLELIRD has abundance fitness that meets -0.06 or exceeds it?
no (0)

Could you please find out whether GNAVQEIMIPASKAGLVIGKGGETIKQLQERAGVKMVMIQDGPQNTGADWPLRITGDPYKVQQAKEMVLELIRD has abundance fitness that meets -0.06 or exceeds it?
yes (1)

Could you please find out whether GNAVQEIMIPVSKAGLVIGKGGETIKQLQERAGVKMVMIQDGPQNTGADKPLRITGDPYKVQQAKEMVLELIRD has abundance fitness that meets -0.06 or exceeds it?
no (0)

Could you please find out whether GNAVQEIMIPASKAGLVIGKGGETIKQLQERAGVKMVMIQDGPQNTGADKPLRITGDSYKVQQAKEMVLELIRD has abundance fitness that meets -0.06 or exceeds it?
no (0)

Could you please find out whether GNAVQEIMIPASKAGNVIGKGGETIKQLQERAGVKMVMIQDGPQNTGADKPLRITGDPYKVQQAKEMVLELIRD has abundance fitness that meets -0.06 or exceeds it?
no (0)
